MBC: recorded values
- Tested on: Escherichia coli
- experimental_protocol: Bactericidal activity against Escherichia coli K88 incubated for 4 hrs followed by culture spread on agar plates and cultured overnight
- Assay type: functional
- reported_conditions: K88, 4 h, read-out: MBC>99.9
result_type: MBC

substance	data_value
H-IKPIIKPIIKPIIKPI-NH2	> 64 µM
H-VKPVVKPVVKPVVKPVVKPVVKPVVKPV-NH2	> 64 µM
H-VKPVVKPVVKPVVKPVVKPVVKPV-NH2	> 64 µM

* * *

- System: Salmonella typhimurium
- experimental_protocol: Bactericidal activity against Salmonella typhimurium C7731 incubated for 4 hrs followed by culture spread on agar plates and cultured overnight
- Type: functional, Salmonella enterica subsp. enterica serovar Typhimurium
- reported_conditions: Salmonella enterica, C7731, 4 h; read-out: MBC>99.9
result_type: MBC (µM)

substance	relation_sign	data_value
H-IRPIIRPIIRPIIRPIIRPIIRPIIRPIIRPI-NH2	>	64
H-LKPLLKPLLKPLLKPL-NH2	>	64
H-IKPIIKPIIKPIIKPIIKPI-NH2	>	64
H-IKPIIKPIIKPIIKPIIKPIIKPI-NH2	>	64
H-LRPLLRPLLRPLLRPLLRPLLRPLLRPLLRPL-NH2	=	4
H-VKPVVKPVVKPVVKPVVKPVVKPVVKPV-NH2	>	64
H-IRPIIRPIIRPIIRPIIRPI-NH2	=	16
H-IKPIIKPIIKPIIKPIIKPIIKPIIKPIIKPI-NH2	>	64
H-IKPIIKPIIKPIIKPIIKPIIKPIIKPI-NH2	>	64
H-LRPLLRPLLRPLLRPL-NH2	=	64
H-VKPVVKPVVKPVVKPVVKPVVKPV-NH2	>	64
H-LKPLLKPLLKPLLKPLLKPLLKPL-NH2	=	8
H-IRPIIRPIIRPIIRPIIRPIIRPI-NH2	=	4
H-LKPLLKPLLKPLLKPLLKPLLKPLLKPL-NH2	=	2
H-LRPLLRPLLRPLLRPLLRPLLRPLLRPL-NH2	=	2
H-LRPLLRPLLRPLLRPLLRPLLRPL-NH2	=	8
H-LKPLLKPLLKPLLKPLLKPLLKPLLKPLLKPL-NH2	=	4
H-IKPIIKPIIKPIIKPI-NH2	>	64
